Taken from the supplement of paper PMC6757056.

B1: library; a variant is named by its letters at N, in order (parent)
chain: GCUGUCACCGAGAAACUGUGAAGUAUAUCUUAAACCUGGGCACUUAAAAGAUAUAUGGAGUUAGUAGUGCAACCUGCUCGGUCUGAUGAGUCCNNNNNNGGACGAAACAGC

variants of: B1; experiment: FACS-Seq fitted mean relative fluorescence mCherry/BFP without ligand (log10 relative fluorescence); HEK293T; ligand: cyclic di-GMP (c-di-GMP-II aptamer); higher = higher reporter protein expression; settings: ligand present: no
Label rule, in plain words: FACS-Seq fitted mean (log10) of -0.4 and up is Yes, under -0.4 is No.

In: Would you say CCGGUA shows FACS-Seq fitted mean (log10) at minimum -0.4?
Out: No
